From: PubChem BioAssay (NCI)

test: NCI Yeast Anticancer Drug Screen. Data for the sgs1 mgt1 strain (AID 161);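 note: 0% = growth of cultures given vehicle only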; details: S. cerevisiae sgs1 mgt1 strain, at 50.0 µM
This is part of a sample that, as a whole, favours compounds with a hit. Of some 79,000 tested, about 15% had one in any assay. Activity calls are given as the source filed them. Cut-off read from the data, not from the text of the source: active = growth inhibition above about 70%; inactive = the rest.
The reply should name one outcome from T for active, F for inactive

Worked examples, 4 compounds total:
INSERT INTO assay_data (compound, grouplabel) VALUES
  ('O=C1c2ccccc2CCC1(Br)Br', 'T'),
  ('Nc1nc2c(c(=O)[nH]1)NC(CCNc1ccc(C(=O)O)cc1)CN2 (stereo not given)', 'F'),
  ('c1ccc(N2N=C3N(c4ccccc4)C2N3c2ccccc2)cc1', 'T'),
  ('CN(CC(=O)O)c1ccc(/C=C/c2ccnc3ccccc23)cc1', 'F');

Test call for this compound, please: `CN(C)Cc1cccc(CN(C)C)[c]1[Sn]([Br])([c]1ccccc1)[c]1ccccc1` T

====

experiment: NCI Yeast Anticancer Drug Screen. Data for the sgs1 strain (AID 173);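 note: 0% = growth of vehicle-only control cultures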; settings: S. cerevisiae sgs1 mutant, at 11.0 µM
About 79,000 compounds went through this panel and 15% of them were active in at least one assay; those are over-represented in the sample as a whole. Calls of active or inactive are those of the source. Rule as the data show it: active = growth inhibition above about 70%; inactive = the rest.
Hello, when you answer, please use one of the following outcomes: active, inactive

Before answering, review these 6 worked examples.
INSERT INTO assay_data (smilesnotation, grouplabel) VALUES
  ('O=C(O)c1cccc2cccc(-c3c4ccc(=O)cc-4oc4cc(O)ccc34)c12', 'active'),
  ('CC(=O)[O-].O=C([CH-]C(=O)c1ccccc1)c1ccccc1.O=C([CH-]C(=O)c1ccccc1)c1ccccc1.[Sm+3]', 'inactive'),
  ('[N-]=[N+]=NC(c1ccccc1)(c1ccccc1)c1ccccc1', 'inactive'),
  ('S=c1nc(Cl)cc2[nH]c(Cl)cn12', 'inactive'),
  ('CC(=O)C1=C(C)O/C(=C/c2cccc(Cl)c2)C1=O', 'inactive'),
  ('Cn1ncc2cc3c(Nc4ccc(Cl)cc4)cccc3nc21', 'inactive');

We now examine a further compound.
// param item: `CC(C)(O)c1ccccc1C(c1ccccc1)c1ccccc1` ; yields the recorded call inactive

====

assay: NCI Yeast Anticancer Drug Screen. Data for the rad50 strain (AID 155);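 note: 0% = growth of vehicle-only cultures of the same strain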; details: S. cerevisiae rad50 strain growth inhibition; at 50.0 µM (retest, dose inferred, filed as 5.0); stronger effect = higher value
This is part of a sample that, as a whole, favours compounds with a hit. Of some 79,000 tested, about 15% had one in any assay.
metricName: growth inhibition (%)
Give bare numbers, in %.

# example entries with known answers
INSERT INTO measurements (smilesnotation, metricname, measured) VALUES
  ('CC(=O)C1=C(C)O/C(=C/c2cccc(Cl)c2)C1=O', 'growth inhibition', 59),
  ('CCn1ncc(N=O)c1N', 'growth inhibition', 61),
  ('O=Nn1c2ccccc2c2cc([N+](=O)[O-])ccc21', 'growth inhibition', 92),
  ('O=S(=O)(N/N=C/c1cccc(Cl)c1)c1ccccc1', 'growth inhibition', 92),
  ('S=c1[nH]c2c(Cl)c(Cl)c(Cl)c(Cl)c2[nH]1', 'growth inhibition', 92);

Batch request: growth inhibition per item, same order as input.
1. Cc1cc(N=C2C=CC(=[N+](C)C)C=C2)c(N)cc1N
2. Clc1cc(-c2ccccc2)nc2ccccc12
3. NC(N)=NCCCS(=O)(=O)Nc1ccc(Nc2c3ccccc3nc3cc([N+](=O)[O-])ccc23)cc1
4. C=C(CCCO)[C@@H]1CC[C@@](C)(O)[C@H]1C

[61, 90, 88, 90]

====

test: NCI Yeast Anticancer Drug Screen. Data for the wt1 strain (AID 149);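 note: 0% = growth of vehicle-treated wt1 cultures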; conditions: S. cerevisiae wt1 strain (SPY 50644) growth inhibition; at 3.7 µM; stronger effect = higher value
About 79,000 compounds went through this panel and 15% of them were active in at least one assay; those are over-represented in the sample as a whole. Activity calls are given as the source filed them. Cut-off read from the data, not from the text of the source: active = growth inhibition above about 70%; inactive = the rest.
metricName: growth inhibition

INSERT INTO results (compound, metricname, measured) VALUES
  ('[N-]=[N+]=NC(c1ccccc1)(c1ccccc1)c1ccccc1', 'growth inhibition', '12% (inactive)'),
  ('Cc1ccc(N=Nc2ccc(O)c(C)c2)cc1', 'growth inhibition', '-2% (inactive)'),
  ('CN(CC(=O)O)c1ccc(/C=C/c2ccnc3ccccc23)cc1', 'growth inhibition', '-3% (inactive)');

State recorded growth inhibition for all listed compounds.
1. COc1cccc(C(c2cc3c(cc2O)OCO3)N2CCOCC2)c1OC (stereo not given)
2. CC(C)c1cccc(O)c(=O)c1

1: -2% (inactive); 2: -1% (inactive)

====

assay: NCI Yeast Anticancer Drug Screen. Data for the rad50EPP+ strain (AID 151);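 note: 0% = growth of vehicle-treated control cultures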; details: S. cerevisiae rad50 mutant strain, at 100.0 µM, stronger effect = higher value
Compounds without any hit were thinned out: in the full panel of roughly 79,000, 15% have a hit. The source made the active and inactive calls. Rule as the data show it: active = growth inhibition above about 70%; inactive = the rest.
metricName: growth inhibition

INSERT INTO results (compound, measured) VALUES
  ('Cn1c2nc3ccccc3c-2nc2ccccc21', '98% (active)'),
  ('CCN(CC)CCNC(=O)c1nn(-c2ccc(Cl)cc2)c2c1CCc1cc(OC)ccc1-2', '56% (inactive)'),
  ('Nc1nc2c(c(=O)[nH]1)NC(CCNc1ccc(C(=O)O)cc1)CN2 (stereo not given)', '-5% (inactive)'),
  ('O=[N+]([O-])c1cc(S(=O)(=O)Nc2ccccc2)ccc1Cl', '48% (inactive)'),
  ('COc1cc(CNc2ccc(C(C)C)cc2)cc(OC)c1OC', '28% (inactive)');

Field: growth inhibition. Fill in for each record below.
1. OC(CN1CCCCC1)c1cc(Cl)c(Cl)c(Cl)c1 (stereo not given)
2. O=C(CNS(=O)(=O)Cc1ccccc1)NNc1ccccc1
3. CCOC(=O)C(NC(=O)CC)(N1CCN(c2cc3c(cc2F)c(=O)c(C(=O)O)cn3C2CC2)CC1)C(F)(F)F (stereo not given)
4. COc1ccc(N)c2c1C(=O)c1ccccc1C2=O

1% (inactive)
58% (inactive)
11% (inactive)
97% (active)

====

assay: NCI Yeast Anticancer Drug Screen. Data for the rad14 strain (AID 159);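 note: 0% = growth of vehicle-treated control cultures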; details: S. cerevisiae rad14 strain growth inhibition; at 11.0 µM; stronger effect = higher value
The panel holds about 79,000 compounds, 15% with a hit somewhere; the sample as a whole holds those more often.
metricName: growth inhibition (%)
Give bare numbers, in %.

INSERT INTO assay_data (compound, measured) VALUES
  ('CCC(c1ccc(O)cc1)C(CC)c1ccc(OCCN)cc1 (stereo not given)', 3),
  ('CNc1nc(C)nc2c1cnn2-c1ccc([N+](=O)[O-])cc1', 22),
  ('CN(NC(=O)/C(=C/c1ccc(O)cc1)NC(=O)c1ccccc1)c1ccnc2cc(Cl)ccc12', 13),
  ('COc1cc(N(C)C)ccc1/C=C\c1ccnc2ccccc12', 0);

Now let's try a different one.
What does the data say about its growth inhibition? Entry: `COC(=O)c1oc([N+](=O)[O-])c(Cl)c1Cl` 90

====

assay: NCI Yeast Anticancer Drug Screen. Data for the wt2 strain (AID 169);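 note: 0% = growth of vehicle-treated yeast cultures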; conditions: S. cerevisiae wt2 strain growth inhibition; at 33.0 µM
About 79,000 compounds went through this panel and 15% of them were active in at least one assay; those are over-represented in the sample as a whole. Activity calls are given as the source filed them. No stated cut-off is given here; in the data, active means growth inhibition above about 70%; inactive means the rest.
Your answer must be one of the following: label 1 for active, label 0 for inactive

These solved cases illustrate the format of a correct answer.
INSERT INTO results (compound, grouplabel) VALUES
  ('O/N=C/C1c2ccccc2-c2ccccc21', 'label 0'),
  ('O=NN(CCCl)C(=O)NCCCl', 'label 0'),
  ('CNc1nc(C)nc2c1cnn2-c1ccc([N+](=O)[O-])cc1', 'label 0'),
  ('N#CSC1CCCCNC1=O (stereo unspecified)', 'label 0'),
  ('CN(NC(=O)/C(=C/c1ccc(O)cc1)NC(=O)c1ccccc1)c1ccnc2cc(Cl)ccc12', 'label 0');

Field: next compound
# outcome recorded in this test, key = `CCOC(=O)C1=C(C)NC(C)=C(C(=O)OCC)C1c1ccc(C)cc1` label 1

====

test: NCI Yeast Anticancer Drug Screen. Data for the rad50EPP+ strain (AID 151);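 note: 0% = growth of vehicle-treated control cultures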; settings: S. cerevisiae rad50 mutant strain, at 1.2 µM, stronger effect = higher value
Compounds without any hit were thinned out: in the full panel of roughly 79,000, 15% have a hit. Residues, ends and D or L forms follow the SMILES beside them. *: point of attachment. CH2Cl = ClC*
metricName: growth inhibition (%)
Give bare numbers, in %.

Before answering, review these 2 worked examples.
INSERT INTO measurements (compound, measured) VALUES
  ('c1ccc(N2N=C3N(c4ccccc4)C2N3c2ccccc2)cc1', -13),
  ('O=C1CSC(=S)N1Cc1ccc(Cl)cc1Cl', 12);

Working through the 5 compounds below one at a time, give growth inhibition for each.
1. OC(CN1CCCCC1)c1cc(Cl)c(Cl)c(Cl)c1 (configuration not stated)
2. CC[C@@]1(OC(=O)CN(C)C)C(=O)OCc2c1cc1n(c2=O)Cc2cc3c(N)cccc3nc2-1
3. CC(=O)[C@]1(O)Cc2c(O)c3c(c(O)c2[C@@H](OC2CC(N)C(O)C(C)O2)C1)C(=O)c1c(OCc2ccccc2)cccc1C3=O (some centres not stated)
4. CCc1nc(N)nc(N)c1-c1ccc(NCCCCCCN)c([N+](=O)[O-])c1
5. COC(=O)c1n[nH]c(C)c1N=NN(C)CCC#N

1: 3; 2: 7; 3: 18; 4: -6; 5: 26

Below is a list of compounds. For each, state its recorded growth inhibition.
1. O=[N+]([O-])c1cccc2nc3ccccc3c(NCCc3cccc[n+]3[O-])c12
2. N#C/C(=C\c1ccccc1)c1ccccc1F
3. CC(=O)NC(CC(C)C)C(=O)NC(Cc1ccccc1)C(=O)CCl (stereo not drawn) (Ac-Leu-Phe-CH2Cl; configuration not given here)
4. CC(C)(C)[OH+][O-].[O-]c1ccc(Cl)cc1C=Nc1ccc(Cl)cc1[O-].[O]=[V]

21
2
-3
0

For the 6 compounds below, give their growth inhibition values.
1. CC1C(C#N)(C#N)C(C#N)=C(N)C1(Cl)[N+](=O)[O-] (configuration not stated)
2. CCCCCCCCCCCCCCCCNC(=O)/C(=C\c1ccc(Cl)c(Cl)c1)NC(=O)c1ccccc1
3. CCN(CC)CC(O)C1CCC(c2ccccc2)CC1 (configuration not stated)
4. O=C(NC(=S)Nc1ccccn1)c1ccccc1
5. CCC(=O)Oc1ccc(/C=N/NC(N)=S)nc1
6. CCn1ncc(N=O)c1N

[19, 2, 4, -30, 0, 0]
